Value source: patent EP4635500A1

Test system: Enterobacterales
assayProcedure: MIC, broth microdilution, CDC/FDA Antibiotic Resistance Isolate Bank (Example 7, Tables 8, 11, 12)
Format: cell-based
protocolConditions: Enterobacter cloacae, KUB No. 5547, AR Bank# 50; read-out: MIC
assayEndpoint: MIC (µg/mL)
Reply with just the number (in µg/mL).

C[C@H]1COc2c(N3CCN(C)CC3)c(F)cc3c(=O)c(C(=O)O)cn1c23
8
CC(C)(O/N=C(\C(=O)N[C@@H]1C(=O)N2C(C(=O)[O-])=C(C[N+]3(CCNC(=O)c4ccc(O)c(O)c4Cl)CCCC3)CS[C@H]12)c1csc(N)n1)C(=O)O
2
CO/N=C(\C(=O)N[C@@H]1C(=O)N2C(C(=O)[O-])=C(C[n+]3ccn4ncccc43)CS[C@H]12)c1nsc(N)n1
8

Respond only with MIC recorded for "NCC[C@H](O)C(=O)N[C@@H]1C[C@H](N)[C@@H](O[C@H]2O[C@H](CN)[C@@H](O)[C@H](O)[C@H]2O)[C@H](O)[C@H]1O[C@H]1O[C@H](CO)[C@@H](O)[C@H](N)[C@H]1O"
1
